target: Histone deacetylase (Homo sapiens) (UniProt Q13547+O15379+Q9UBN7+Q92769+Q9UQL6+Q8WUI4+Q9BY41+Q96DB2+P56524+Q9UKV0+Q969S8); test: Inhibition of HDAC in human SW620 cells assessed as acetylated histone-H3 level at 1 uM after 24 hrs by Western blotting analysis; type: cell-based; settings: SW-620
Activity calls are given as the source filed them. No cut-off for these calls is given here.
Allowed answers: active, inactive

Would you please look over these solved cases?
test_smiles=O=C(CCCCCCN1C(=O)/C(=N\O)c2cc(F)ccc21)NO class_assignment=active
test_smiles=O=C(CCCCCCN1C(=O)/C(=N\O)c2ccccc21)NO class_assignment=active
test_smiles=O=C(CCCCCCN1C(=O)/C(=N\O)c2cc(Br)ccc21)NO class_assignment=active

Record lookup: outcome of this test for CO/N=C1/C(=O)N(CCCCCCC(=O)NO)c2ccc(C)cc21 ?
inactive

Lab log entry: CO/N=C1/C(=O)N(CCCCCCC(=O)NO)c2ccc(Cl)cc21 — outcome as called in the assay?
active

Hello, I am checking results. What call was entered for CO/N=C1/C(=O)N(CCCCCCC(=O)NO)c2ccc(F)cc21 ?
active

Lab log entry: Cc1ccc2c(c1)/C(=N/O)C(=O)N2CCCCCCC(=O)NO — outcome as called in the assay?
active

Status in this test for O=C(CCCCCCN1C(=O)/C(=N\O)c2cc([N+](=O)[O-])ccc21)NO ?
inactive

Assay outcome for CO/N=C1/C(=O)N(CCCCCCC(=O)NO)c2ccccc21 : what was it?
active

Returns: the outcome recorded for O=C(CCCCCCN1C(=O)/C(=N\O)c2cccc(Cl)c21)NO in this assay.
active

Hi, sorry to bother you, what did the test record for CO/N=C1/C(=O)N(CCCCCCC(=O)NO)c2c(Cl)cccc21 ?
active

Which outcome was assigned to O=C(CCCCCCN1C(=O)/C(=N\O)c2cc(Cl)ccc21)NO in this test?
active

Just curious, what result did CO/N=C1/C(=O)N(CCCCCCC(=O)NO)c2ccc(Br)cc21 get here?
active

Can you look up the reported call for CO/N=C1\C(=O)N(CCCCCCC(=O)NO)c2ccc([N+](=O)[O-])cc21 for me?
inactive

###

tested on: SW-620; assay: Antiproliferative activity against human SW620 cells after 48 hrs by SRB assay; type: functional, cell-based; settings: SW-620, 48 h
pIC50: −log10 of the molar value.
property.measured: pIC50

Examples with their reported pIC50 follow.
test_smiles=CO/N=C1\C(=O)N(CCCCCCC(=O)NO)c2ccc([N+](=O)[O-])cc21 assay_result=5.87
test_smiles=O=C(CCCCCCN1C(=O)/C(=N\O)c2cc(F)ccc21)NO assay_result=6.96
test_smiles=Cc1ccc2c(c1)/C(=N/O)C(=O)N2CCCCCCC(=O)NO assay_result=6.00
test_smiles=CO/N=C1/C(=O)N(CCCCCCC(=O)NO)c2ccc(F)cc21 assay_result=5.95
test_smiles=O=C(CCCCCCN1C(=O)/C(=N\O)c2ccccc21)NO assay_result=6.19
test_smiles=O=C(CCCCCCN1C(=O)/C(=N\O)c2cc([N+](=O)[O-])ccc21)NO assay_result=5.47

a = CO/N=C1/C(=O)N(CCCCCCC(=O)NO)c2ccc(Cl)cc21
b = O=C(CCCCCCN1C(=O)/C(=N\O)c2cc(Br)ccc21)NO
Please indicate which entry, a or b , has the lower recorded pIC50 value. Pick one; state its label.
a
(a: 6.31, b: 6.54)
